Test system: LNCaP tumor-transplanted mouse
Assay name: Internal radioactivity distribution using LNCaP tumor-transplanted mouse
Type: in vivo
Measurement conditions: 96 h after administration
Endpoint name: Lung (% ID/g)
Answers are plain numbers, in % ID/g.

Reference set, count: 7
O=C(O)CC[C@H](NC(=O)N[C@@H](CCCCNC(=O)[C@H](Cc1ccc2ccccc2c1)NC(=O)[C@H]1CC[C@H](CNC(=O)CCC(C(=O)O)N2CCN(CC(=O)O)CCN(C(CCC(=O)N[C@@H](CCCCNC(=O)CCCc3ccc(I)cc3)C(=O)O)C(=O)O)CCN(CC(=O)O)CC2)CC1)C(=O)O)C(=O)O (some centres unmarked) [[^111In]In-PSMA-NAT-DA1, metal not drawn]    4.55
O=C([O-])CN(Cc1cccc(C(=O)[O-])n1)C[C@H](Cc1ccc(NC(=O)CCCCCNC(=O)CCC(=O)NCCCC[C@H](NC(=O)N[C@@H](CCC(=O)O)C(=O)O)C(=O)O)cc1)N(CC(=O)[O-])Cc1cccc(C(=O)[O-])n1.[111In+3] [[^111In]In-Octapa-1, reference compound]    0.09
O=C([O-])CN(CCN(CCc1ccc(NC(=O)CCCCCNC(=O)CCC(=O)NCCCC[C@H](NC(=O)N[C@@H](CCC(=O)O)C(=O)O)C(=O)O)cc1)CCN(CC(=O)[O-])Cc1cccc(C(=O)[O-])n1)Cc1cccc(C(=O)[O-])n1.[111In+3] [[^111In]In-Neunpa-1, reference compound]    0.39
O=C([O-])CN1CCN(C(CCC(=O)NCCCC[C@H](NC(=O)N[C@@H](CCC(=O)O)C(=O)O)C(=O)O)C(=O)[O-])CCN(CC(=O)[O-])CCN(C(CCC(=O)Nc2ccccc2)C(=O)[O-])CC1.[111In+3] (some centres unmarked) [[^111In]In-PSMA-DB, reference compound]    0.70
O=C([O-])CN1CCN(C(CCC(=O)NCCCC[C@H](NC(=O)N[C@@H](CCC(=O)O)C(=O)O)C(=O)O)C(=O)[O-])CCN(CC(=O)[O-])CCN(C(CCC(=O)N[C@@H](CCCCNC(=O)CCCc2ccc(I)cc2)C(=O)O)C(=O)[O-])CC1.[111In+3] (some centres unmarked) [[^111In]In-PSMA-DA1]    1.55
O=C([O-])CN(Cc1cccc(C(=O)[O-])n1)C[C@H](Cc1ccc(NC(=O)[C@H](CCCCNC(=O)CCC(=O)NCCCC[C@H](NC(=O)N[C@@H](CCC(=O)O)C(=O)O)C(=O)O)NC(=O)COCCOCCOCC(=O)N[C@@H](CCCCNC(=O)CCCc2ccc(I)cc2)C(=O)O)cc1)N(CC(=O)[O-])Cc1cccc(C(=O)[O-])n1.[111In+3] [[^111In]In-Octapa-3]    0.78
O=C([O-])CN(Cc1cccc(C(=O)[O-])n1)C[C@H](Cc1ccc(NC(=O)[C@H](CCCCNC(=O)CCC(=O)NCCCC[C@H](NC(=O)N[C@@H](CCC(=O)O)C(=O)O)C(=O)O)NC(=O)CCCc2ccc(I)cc2)cc1)N(CC(=O)[O-])Cc1cccc(C(=O)[O-])n1.[111In+3] [[^111In]In-Octapa-2]    0.14

Next:
[Q] Entry O=C([O-])CN(CCN(CCc1ccc(NC(=O)[C@H](CCCCNC(=O)CCC(=O)NCCCC[C@H](NC(=O)N[C@@H](CCC(=O)O)C(=O)O)C(=O)O)NC(=O)CCCc2ccc(I)cc2)cc1)CCN(CC(=O)[O-])Cc1cccc(C(=O)[O-])n1)Cc1cccc(C(=O)[O-])n1.[111In+3] [[^111In]In-Neunpa-2] has what Lung?
[A] 0.36
